B1: Far upstream element-binding protein 1, residues 98 to 169; numbered along this chain, Q96AE4 (parent)
chain: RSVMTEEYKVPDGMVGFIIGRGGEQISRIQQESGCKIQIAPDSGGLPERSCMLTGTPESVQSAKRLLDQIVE

Variants of: B1
experiment.notes: abundance fitness (aPCA) (normalised: wild type 0, dead -1); higher = more abundant; growth selection in yeast, the domain comes from the species named
condition.context: Homo sapiens
Assign class by abundance fitness: not lower than -0.05 means t; lower than -0.05 means f.

These recorded examples may help you get a feel for the data.
>>> label("K9S")
"f"
>>> label("Y8V")
"f"
>>> label("K36V")
"t"
>>> label("K9V")
"f"

In: Hello, I need to know if S2L has measured abundance fitness not below -0.05. Thanks!
Out: f

In: Hello, I need to know if S62V has measured abundance fitness not below -0.05. Thanks!
Out: t

In: Hello, I need to know if S50Y has measured abundance fitness not below -0.05. Thanks!
Out: f

In: Hello, I need to know if S33Y has measured abundance fitness not below -0.05. Thanks!
Out: f

In: Hello, I need to know if P47N has measured abundance fitness not below -0.05. Thanks!
Out: t

In: Hello, I need to know if M14A has measured abundance fitness not below -0.05. Thanks!
Out: t

In: Hello, I need to know if S2M has measured abundance fitness not below -0.05. Thanks!
Out: t

In: Hello, I need to know if A40S has measured abundance fitness not below -0.05. Thanks!
Out: t

In: Hello, I need to know if S59T has measured abundance fitness not below -0.05. Thanks!
Out: f
